B1: KCNA4 (parent)
chain: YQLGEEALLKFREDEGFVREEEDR

Variants of: B1
assay: protein stability index of a GFP-peptide fusion (GPS, HEK-293T) (PSI 1-6); higher = more stable;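 also: lentivirally expressed fusions sorted by FACS into six bins by GFP to DsRed ratio, PSI derived from sequencing read proportions per bin multiplied by bin number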
experimental_setup: c terminus: a fixed tail appended
Label met when protein stability index is at or above 5; otherwise label not met.

{"columns": ["mutation_list", "group_label"],
 "data": [
  ["E5F", "not met"],
  ["Y1G", "met"],
  ["Y1N", "met"],
  ["L3W", "not met"],
  ["G16R", "not met"],
  ["E21N", "not met"]
]}

Please tell me: is the variant R24N at or over 5 in terms of protein stability index?
not met

For this variant, is measured protein stability index 5 or higher? F11K
met

Is the recorded value of protein stability index equal to or greater than 5 for this variant? G4L
not met

Threshold query (protein stability index >= 5) on L3E
met

Check if protein stability index >= 5 (inclusive). Item: L8Q
met

State whether the measured protein stability index reaches 5, counting equality as reaching it, for D23E
not met

Kindly determine if protein stability index recorded for L8S is above or exactly 5.
met

Hi team, for F11W , is the recorded protein stability index at or above 5?
not met

Can E6I be said to have protein stability index at or above 5?
not met

# credit: the supplement of paper PMC10567573
